# Test system: SF-295 CNS
# assay-comment: NCI tumour cell line growth inhibition, 48 h

compound: Cc1cccc(/C=N/NC(=S)NC(C)(C)C)n1
TGI: > 100 µM
//
compound: CC(Cl)CC(=O)Nc1ccc2c(c1)oc(=O)c1cc(NC(=O)CC(C)Cl)ccc12 (stereo not given)
TGI: 36.5 µM
//
compound: CC(=O)Nc1[nH]c(=O)[nH]c(=O)c1N(C(C)=O)C(C)=O
TGI: > 100 µM
//
compound: CC12CC(=O)NN=C1c1ccccc1C2 (stereo not given)
TGI: > 100 µM
//
compound: C#Cc1ccccc1C(=O)OC
TGI: > 100 µM
